Ref: paper PMC11459959

Give measured pEC50 for each item. Keep answers brief.
- System: NRTI-resistant HIV-1 strain 7407
- PROTOCOL: microbe, parasite or virus in culture
- Assay type: cell-based
- REPORTED_CONDITIONS: Human immunodeficiency virus 1, TZM-bl
pEC50: −log10 of the molar value.

Nc1ccn([C@@H]2CS[C@H](CO)O2)c(=O)n1 [Compound 3TC, lamivudine] | < 4.00

Batch request: pEC50 per item, same order as input.
1. Nc1nc(NC2CC2)c2ncn([C@H]3C=C[C@@H](CO)C3)c2n1 [ABC, abacavir]
2. Cc1cn([C@H]2C[C@H](N=[N+]=[N-])[C@@H](CO)O2)c(=O)[nH]c1=O [AZT, zidovudine]

Result:
["< 4.00", "< 4.00"]
